target: DDR1 kinase (Homo sapiens, UniProt Q08345); assay: Evaluation of DDR1 kinase inhibition (LANCE Ultra TR-FRET kinase assay); type: biochemical; parameters: purchased Carna Biosciences 08-113; settings: DDR1 protein 0.5 nM, LANCE Ultra ULight-poly GAT substrate, 2 hours at room temperature, duplicate; read-out: DDR-1 IC50
Sequence (Q08345 19-876 isoform Q08345-2 limits assumed): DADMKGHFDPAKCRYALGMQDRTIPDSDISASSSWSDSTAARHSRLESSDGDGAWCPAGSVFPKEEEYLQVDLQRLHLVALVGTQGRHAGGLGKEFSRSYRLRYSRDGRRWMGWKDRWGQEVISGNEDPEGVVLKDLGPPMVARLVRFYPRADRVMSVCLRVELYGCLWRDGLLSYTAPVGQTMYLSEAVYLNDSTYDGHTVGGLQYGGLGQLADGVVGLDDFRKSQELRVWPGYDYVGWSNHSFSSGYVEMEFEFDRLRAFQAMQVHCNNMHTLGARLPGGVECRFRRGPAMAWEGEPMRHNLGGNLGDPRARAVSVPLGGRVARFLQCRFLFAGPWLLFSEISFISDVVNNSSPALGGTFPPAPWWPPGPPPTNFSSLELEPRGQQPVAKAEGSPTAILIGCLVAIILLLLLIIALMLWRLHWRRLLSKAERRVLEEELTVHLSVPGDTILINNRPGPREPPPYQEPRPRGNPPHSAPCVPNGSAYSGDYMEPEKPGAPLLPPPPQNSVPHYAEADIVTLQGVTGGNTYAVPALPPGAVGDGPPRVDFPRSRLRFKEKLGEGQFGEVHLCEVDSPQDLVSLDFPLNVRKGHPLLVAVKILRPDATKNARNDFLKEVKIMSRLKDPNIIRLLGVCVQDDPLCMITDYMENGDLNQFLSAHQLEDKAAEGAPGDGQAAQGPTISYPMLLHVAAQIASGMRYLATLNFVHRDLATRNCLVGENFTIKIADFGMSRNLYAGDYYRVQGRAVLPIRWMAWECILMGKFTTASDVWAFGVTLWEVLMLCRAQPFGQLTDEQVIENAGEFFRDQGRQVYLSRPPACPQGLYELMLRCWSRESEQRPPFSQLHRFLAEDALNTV
MEASUREMENT_LABEL: pIC50
Interpret pIC50 as the negative base-10 log of the concentration measured in mol/L.

Some compounds with recorded pIC50:
[[record]]
compound = "CO[C@@H]1CCN(C(=O)Cn2nc(C3CN(C(=O)c4cc(N)ncc4F)C3)c3ccccc32)C1"
measurement_label = "pIC50"
meas_value = 7.52

[[record]]
compound = "CN(CC(F)(F)F)C(=O)Cn1nc(C2CN(C(=O)c3nc(N)ncc3F)C2)c2cc(Cl)ccc21"
measurement_label = "pIC50"
meas_value = 8.82


// Input: "Nc1cc(C(=O)N2CC(c3nn(CC(=O)N4CC5CCC(C4)O5)c4ccccc34)C2)c(F)cn1" . Output its pIC50 only.
7.13

Fill in pIC50 for record "Nc1cc(C(=O)N2CC=C(c3cn(CC(=O)N4CCC[C@H]4C(F)(F)F)c4cccc(F)c34)CC2)ccn1"
8.66

State its pIC50 for this compound: "Nc1cc(C(=O)N2CC(c3nn(CC(=O)NC(C4CC4)C4CC4)c4ccccc34)C2)ccn1"
7.74

Please supply the value of reported pIC50 for the item "Nc1cc(C(=O)N2CC(c3nn(Cc4noc(C(F)(F)F)n4)c4cccc(F)c34)C2)ccn1"
7.89

Fill in reported pIC50 for this entry: "O=C(c1cn[nH]c1C(F)(F)F)N1CC(c2nn(CC(=O)N3CCC[C@H]3C(F)(F)F)c3cc(F)cc(F)c23)C1"
6.82

Data credit: patent EP4624465A1
